Can you tell me viability, T/C for the items I'm about to list?
# Test system: 991263-137-R1-J2-PDC complex spheroid viability
# test_summary: Anticancer human tumor 991263-137-R1-J2-PDC patient-derived colon adenocarcinoma cell line growth inhibition [POLQ]
# reported_conditions: second compound 0.0316 µM; first compound 0.01 µM; stronger effect = lower value
Unit % implied. Number only.

Documented viability, T/C of C=CCn1c(=O)c2cnc(Nc3ccc(N4CCN(C)CC4)cc3)nc2n1-c1cccc(C(C)(C)O)n1 + COC1C(OC(N)=O)C(O)C(Oc2ccc3c(O)c(NC(=O)c4ccc(O)c(CC=C(C)C)c4)c(=O)oc3c2C)OC1(C)C : 115

Documented viability, T/C of C=CCn1c(=O)c2cnc(Nc3ccc(N4CCN(C)CC4)cc3)nc2n1-c1cccc(C(C)(C)O)n1 + Nc1ccc(C#CCN(C(=O)Cc2ncc(C(F)(F)F)cc2C(F)(F)F)c2ccc(F)cc2)nn1 : 100

Documented viability, T/C of COc1cccc(OCCCN)c1-c1cc(Nc2cnc(C#N)cn2)n[nH]1 + Cc1cccc(N(C)C(=O)C2C(O)CCN2c2nc(C)cc(C(F)(F)F)c2C#N)c1 : 104

Documented viability, T/C of CCc1c2c(nc3ccc(O)cc13)-c1cc3c(c(=O)n1C2)COC(=O)[C@]3(O)CC + Cc1cccc(N(C)C(=O)C2C(O)CCN2c2nc(C)cc(C(F)(F)F)c2C#N)c1 : 91.3

Documented viability, T/C of Cn1ncnc1[C@H]1c2n[nH]c(=O)c3cc(F)cc(c23)N[C@@H]1c1ccc(F)cc1 + Cc1cccc(N(C)C(=O)C2C(O)CCN2c2nc(C)cc(C(F)(F)F)c2C#N)c1 : 93.3

---

# Test system: 991263-137-R1-J2-PDC complex spheroid viability
# test_summary: Anticancer human tumor 991263-137-R1-J2-PDC cell line growth inhibition [POLQ];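 also: spheroids exposed to compounds for 7 days before readout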;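 as to viability, T/C: 100% = DMSO vehicle control viability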
# reported_conditions: second compound 0.1 µM; first compound 0.001 µM; stronger effect = lower value
endpoint: viability, T/C (%)
Unit % implied. Number only.

Documented viability, T/C of CC[C@@]1(O)C(=O)OCc2c1cc1n(c2=O)Cc2cc3c(CN(C)C)c(O)ccc3nc2-1 + Nc1ccc(C#CCN(C(=O)Cc2ncc(C(F)(F)F)cc2C(F)(F)F)c2ccc(F)cc2)nn1 : 102

Documented viability, T/C of CC[C@@]1(O)C(=O)OCc2c1cc1n(c2=O)Cc2cc3c(CN(C)C)c(O)ccc3nc2-1 + Cc1cccc(N(C)C(=O)C2C(O)CCN2c2nc(C)cc(C(F)(F)F)c2C#N)c1 : 111

Documented viability, T/C of Cn1ncnc1[C@H]1c2n[nH]c(=O)c3cc(F)cc(c23)N[C@@H]1c1ccc(F)cc1 + COC1C(OC(N)=O)C(O)C(Oc2ccc3c(O)c(NC(=O)c4ccc(O)c(CC=C(C)C)c4)c(=O)oc3c2C)OC1(C)C : 117

---

# System: 991263-137-R1-J2-PDC complex spheroid viability
# test_summary: Anticancer human tumor 991263-137-R1-J2-PDC cell line growth inhibition [POLQ];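 also: spheroids exposed to compounds for 7 days before readout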
# reported_conditions: curve of first compound; second compound 0.1 µM
pIC50: −log10 of the molar value.
endpoint: pIC50

Documented pIC50 of O=c1[nH]cc(F)c(=O)[nH]1 + Cc1cccc(N(C)C(=O)C2C(O)CCN2c2nc(C)cc(C(F)(F)F)c2C#N)c1 : < 5.00

Documented pIC50 of COc1cc(C2c3cc4c(cc3C(OC3OC5COC(C)OC5C(O)C3O)C3COC(=O)C23)OCO4)cc(OC)c1O (stereo unspecified) + Cc1cccc(N(C)C(=O)C2C(O)CCN2c2nc(C)cc(C(F)(F)F)c2C#N)c1 : < 5.00

Documented pIC50 of Cn1ncnc1[C@H]1c2n[nH]c(=O)c3cc(F)cc(c23)N[C@@H]1c1ccc(F)cc1 + Cc1cccc(N(C)C(=O)C2C(O)CCN2c2nc(C)cc(C(F)(F)F)c2C#N)c1 : < 7.00

Documented pIC50 of CNCc1ccc(-c2[nH]c3cc(F)cc4c3c2CCNC4=O)cc1 + Cc1cccc(N(C)C(=O)C2C(O)CCN2c2nc(C)cc(C(F)(F)F)c2C#N)c1 : < 5.00

Documented pIC50 of C=CCn1c(=O)c2cnc(Nc3ccc(N4CCN(C)CC4)cc3)nc2n1-c1cccc(C(C)(C)O)n1 + COC1C(OC(N)=O)C(O)C(Oc2ccc3c(O)c(NC(=O)c4ccc(O)c(CC=C(C)C)c4)c(=O)oc3c2C)OC1(C)C : < 6.00

Documented pIC50 of COc1cccc2c1C(=O)c1c(O)c3c(c(O)c1C2=O)CC(O)(C(=O)CO)CC3OC1CC(N)C(O)C(C)O1 (stereo unspecified) + Cc1cccc(N(C)C(=O)C2C(O)CCN2c2nc(C)cc(C(F)(F)F)c2C#N)c1 : 5.73

---

# Test system: 991263-137-R1-J2-PDC complex spheroid viability
# test_summary: Anticancer human tumor 991263-137-R1-J2-PDC cell line growth inhibition [POLQ];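 also: spheroids exposed to compounds for 7 days before readout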
# reported_conditions: curve of first compound; second compound 0.1 µM
endpoint: IC50

Documented IC50 of CCc1cc2c(N3CCc4c(cc(Cn5ccnc5)cc4-c4cn(C)nc4C(F)(F)F)C3=O)cc(C)nc2c(OC)n1 + Cc1cccc(N(C)C(=O)C2C(O)CCN2c2nc(C)cc(C(F)(F)F)c2C#N)c1 : > 10 µM

Documented IC50 of C#Cc1c(F)ccc2cc(O)cc(-c3ncc4c(N5CC6CCC(C5)N6)nc(OCC56CCCN5CC(F)C6)nc4c3F)c12 (stereo not given) + COC1C(OC(N)=O)C(O)C(Oc2ccc3c(O)c(NC(=O)c4ccc(O)c(CC=C(C)C)c4)c(=O)oc3c2C)OC1(C)C : > 10 µM

Documented IC50 of O=C(c1cc(Cc2n[nH]c(=O)c3ccccc23)ccc1F)N1CCN(C(=O)C2CC2)CC1 + Cc1cccc(N(C)C(=O)C2C(O)CCN2c2nc(C)cc(C(F)(F)F)c2C#N)c1 : > 10 µM

Documented IC50 of COc1cc2cc(C(=O)CCC(=O)O)sc2cc1OC + Cc1cccc(N(C)C(=O)C2C(O)CCN2c2nc(C)cc(C(F)(F)F)c2C#N)c1 : > 10 µM

Documented IC50 of C=CCn1c(=O)c2cnc(Nc3ccc(N4CCN(C)CC4)cc3)nc2n1-c1cccc(C(C)(C)O)n1 + Nc1ccc(C#CCN(C(=O)Cc2ncc(C(F)(F)F)cc2C(F)(F)F)c2ccc(F)cc2)nn1 : > 1 µM

---

Can you tell me viability, T/C for the items I'm about to list?
# Test system: 991263-137-R1-J2-PDC complex spheroid viability
# test_summary: Anticancer human tumor 991263-137-R1-J2-PDC cell line growth inhibition [POLQ];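 also: spheroids exposed to compounds for 7 days before readout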;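 as to viability, T/C: 100% = DMSO vehicle control viability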
# reported_conditions: second compound 0.0316 µM; first compound 0.0316 µM; stronger effect = lower value
Unit % implied. Number only.

Documented viability, T/C of CCCS(=O)(=O)Nc1ccc(F)c(C(=O)c2c[nH]c3ncc(-c4ccc(Cl)cc4)cc23)c1F + COC1C(OC(N)=O)C(O)C(Oc2ccc3c(O)c(NC(=O)c4ccc(O)c(CC=C(C)C)c4)c(=O)oc3c2C)OC1(C)C : 110

Documented viability, T/C of C=CC(=O)N1CCN(c2nc(=O)n(-c3c(C)ccnc3C(C)C)c3nc(-c4c(O)cccc4F)c(F)cc23)C(C)C1 (centres undefined) + Nc1ccc(C#CCN(C(=O)Cc2ncc(C(F)(F)F)cc2C(F)(F)F)c2ccc(F)cc2)nn1 : 108

Documented viability, T/C of CC(C)n1c(=O)n(C)c2cnc3cc(F)c(-c4ccc(OCCCN5CCCCC5)nc4)cc3c21 + Cc1cccc(N(C)C(=O)C2C(O)CCN2c2nc(C)cc(C(F)(F)F)c2C#N)c1 : 98.9

Documented viability, T/C of Cn1ncnc1[C@H]1c2n[nH]c(=O)c3cc(F)cc(c23)N[C@@H]1c1ccc(F)cc1 + Nc1ccc(C#CCN(C(=O)Cc2ncc(C(F)(F)F)cc2C(F)(F)F)c2ccc(F)cc2)nn1 : 106

Documented viability, T/C of CC1COCCN1c1cc(-c2ccnn2C)c2ccnc(-c3ccn[nH]3)c2n1 (centres undefined) + Cc1cccc(N(C)C(=O)C2C(O)CCN2c2nc(C)cc(C(F)(F)F)c2C#N)c1 : 99.7

Documented viability, T/C of CC(C)n1c(=O)n(C)c2cnc3cc(F)c(-c4ccc(OCCCN5CCCCC5)nc4)cc3c21 + Nc1ccc(C#CCN(C(=O)Cc2ncc(C(F)(F)F)cc2C(F)(F)F)c2ccc(F)cc2)nn1 : 96.6

Documented viability, T/C of CCc1cc2c(N3CCc4c(cc(Cn5ccnc5)cc4-c4cn(C)nc4C(F)(F)F)C3=O)cc(C)nc2c(OC)n1 + Cc1cccc(N(C)C(=O)C2C(O)CCN2c2nc(C)cc(C(F)(F)F)c2C#N)c1 : 99.4

Documented viability, T/C of O=c1[nH]cc(F)c(=O)[nH]1 + Cc1cccc(N(C)C(=O)C2C(O)CCN2c2nc(C)cc(C(F)(F)F)c2C#N)c1 : 102

Documented viability, T/C of COc1cc2cc(C(=O)CCC(=O)O)sc2cc1OC + COC1C(OC(N)=O)C(O)C(Oc2ccc3c(O)c(NC(=O)c4ccc(O)c(CC=C(C)C)c4)c(=O)oc3c2C)OC1(C)C : 97

Documented viability, T/C of CC1COCCN1c1cc(-c2ccnn2C)c2ccnc(-c3ccn[nH]3)c2n1 (centres undefined) + Nc1ccc(C#CCN(C(=O)Cc2ncc(C(F)(F)F)cc2C(F)(F)F)c2ccc(F)cc2)nn1 : 105

Documented viability, T/C of COc1cccc(OCCCN)c1-c1cc(Nc2cnc(C#N)cn2)n[nH]1 + Nc1ccc(C#CCN(C(=O)Cc2ncc(C(F)(F)F)cc2C(F)(F)F)c2ccc(F)cc2)nn1 : 105

Documented viability, T/C of O=C(Nc1ccc(O)c(NS(=O)(=O)c2ccc(F)cc2)c1)c1ccc(-c2ccccc2)cc1 + Cc1cccc(N(C)C(=O)C2C(O)CCN2c2nc(C)cc(C(F)(F)F)c2C#N)c1 : 103

Documented viability, T/C of Nc1ccn(C2OC(CO)C(O)C2(F)F)c(=O)n1 (centres undefined) + Nc1ccc(C#CCN(C(=O)Cc2ncc(C(F)(F)F)cc2C(F)(F)F)c2ccc(F)cc2)nn1 : 96.1

Documented viability, T/C of Nc1ccn(C2OC(CO)C(O)C2(F)F)c(=O)n1 (centres undefined) + Cc1cccc(N(C)C(=O)C2C(O)CCN2c2nc(C)cc(C(F)(F)F)c2C#N)c1 : 85.6

Documented viability, T/C of COc1cccc2c1C(=O)c1c(O)c3c(c(O)c1C2=O)CC(O)(C(=O)CO)CC3OC1CC(N)C(O)C(C)O1 (centres undefined) + Nc1ccc(C#CCN(C(=O)Cc2ncc(C(F)(F)F)cc2C(F)(F)F)c2ccc(F)cc2)nn1 : 102

Documented viability, T/C of COc1cccc2c1C(=O)c1c(O)c3c(c(O)c1C2=O)CC(O)(C(=O)CO)CC3OC1CC(N)C(O)C(C)O1 (centres undefined) + COC1C(OC(N)=O)C(O)C(Oc2ccc3c(O)c(NC(=O)c4ccc(O)c(CC=C(C)C)c4)c(=O)oc3c2C)OC1(C)C : 116

Documented viability, T/C of O=C(c1cc(Cc2n[nH]c(=O)c3ccccc23)ccc1F)N1CCN(C(=O)C2CC2)CC1 + Nc1ccc(C#CCN(C(=O)Cc2ncc(C(F)(F)F)cc2C(F)(F)F)c2ccc(F)cc2)nn1 : 105

Documented viability, T/C of CC[C@@]1(O)C(=O)OCc2c1cc1n(c2=O)Cc2cc3c(CN(C)C)c(O)ccc3nc2-1 + Cc1cccc(N(C)C(=O)C2C(O)CCN2c2nc(C)cc(C(F)(F)F)c2C#N)c1 : 114

Documented viability, T/C of O=C(Nc1ccc(O)c(NS(=O)(=O)c2ccc(F)cc2)c1)c1ccc(-c2ccccc2)cc1 + COC1C(OC(N)=O)C(O)C(Oc2ccc3c(O)c(NC(=O)c4ccc(O)c(CC=C(C)C)c4)c(=O)oc3c2C)OC1(C)C : 87.8
